biological target: EGFR mutant L858R/T790M Ba/F3 cells (Homo sapiens, UniProt P00533, T790M/L858R, cells depend on it); test: Ba/F3 cell proliferation (Cell Titer Glo), EGFR L858R/T790M; assay type: cell-based, murine; details: 72 hours, read-out: BaF3 cell L858R/T790M
Sequence (P00533 whole entry T790M/L858R): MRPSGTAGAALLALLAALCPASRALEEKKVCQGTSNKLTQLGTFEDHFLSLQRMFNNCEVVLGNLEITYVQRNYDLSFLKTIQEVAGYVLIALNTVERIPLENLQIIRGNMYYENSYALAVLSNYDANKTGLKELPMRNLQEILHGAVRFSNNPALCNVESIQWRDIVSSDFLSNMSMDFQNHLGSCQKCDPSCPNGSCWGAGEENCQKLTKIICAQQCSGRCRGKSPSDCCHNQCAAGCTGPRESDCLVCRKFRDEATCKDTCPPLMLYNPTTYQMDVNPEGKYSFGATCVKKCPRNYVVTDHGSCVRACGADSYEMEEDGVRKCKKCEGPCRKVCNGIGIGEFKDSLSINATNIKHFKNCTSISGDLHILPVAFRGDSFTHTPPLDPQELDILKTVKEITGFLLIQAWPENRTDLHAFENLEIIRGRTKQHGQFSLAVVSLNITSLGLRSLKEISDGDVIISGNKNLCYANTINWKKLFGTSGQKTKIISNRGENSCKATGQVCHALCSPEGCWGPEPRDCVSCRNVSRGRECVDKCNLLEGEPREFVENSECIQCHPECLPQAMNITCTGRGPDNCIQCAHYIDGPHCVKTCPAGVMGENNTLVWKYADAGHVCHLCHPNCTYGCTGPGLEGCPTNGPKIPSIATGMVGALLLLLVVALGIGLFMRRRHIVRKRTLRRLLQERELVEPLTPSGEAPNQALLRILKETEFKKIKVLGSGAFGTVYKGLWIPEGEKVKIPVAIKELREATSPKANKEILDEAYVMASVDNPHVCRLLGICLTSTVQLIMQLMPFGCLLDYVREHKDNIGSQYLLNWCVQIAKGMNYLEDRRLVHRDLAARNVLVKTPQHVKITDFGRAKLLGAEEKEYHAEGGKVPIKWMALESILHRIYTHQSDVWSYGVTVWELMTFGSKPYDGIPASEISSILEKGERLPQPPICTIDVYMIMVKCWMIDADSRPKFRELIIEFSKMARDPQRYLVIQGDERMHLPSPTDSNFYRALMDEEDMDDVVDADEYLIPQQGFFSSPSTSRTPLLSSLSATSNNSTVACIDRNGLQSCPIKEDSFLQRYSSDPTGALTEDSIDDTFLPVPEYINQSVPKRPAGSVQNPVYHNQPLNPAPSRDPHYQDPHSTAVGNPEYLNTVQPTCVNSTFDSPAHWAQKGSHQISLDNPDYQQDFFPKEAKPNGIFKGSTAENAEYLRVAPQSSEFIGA
property: GI50

The following molecules have reported results that may help.
# molecule, GI50
measured = [
    ("CN1CCC(c2ccc(-c3cc(F)c4c(=O)n(C(C(=O)Nc5nccs5)c5ncn6c5C[C@@H](F)C6)ccc4c3)cc2)CC1 (stereo partly shown)", "< 500 nM"),
    ("CN1CCN(c2ccc(-c3ccc4ncn(C(C(=O)Nc5nccs5)c5ncn6c5CCC6)c(=O)c4c3)cc2)CC1 (stereo not shown)", "< 5000 nM"),
]

[Q] # query: GI50 of entry CN1CCC(c2ccc(-c3cc4ccn(C(C(=O)Nc5nccs5)c5ncn6c5C[C@@H](F)C6)c(=O)c4s3)cc2)CC1 (stereo partly shown)
[A] < 500 nM

[Q] Can you handle CN1CCC(c2ccc(-c3ccc4ncn(C(C(=O)Nc5nccs5)c5ncn6c5CCC6)c(=O)c4c3)cc2)CC1 (stereo not shown) next?
[A] < 100 nM

---

biological target: EGFR mutant L858R Ba/F3 cells (Homo sapiens, UniProt P00533, L858R, cells depend on it); experiment: Ba/F3 cell proliferation (Cell Titer Glo), EGFR L858R; format: cell-based, murine; details: 72 hours, read-out: BaF3 cell L858R IC50
Sequence (P00533 whole entry L858R): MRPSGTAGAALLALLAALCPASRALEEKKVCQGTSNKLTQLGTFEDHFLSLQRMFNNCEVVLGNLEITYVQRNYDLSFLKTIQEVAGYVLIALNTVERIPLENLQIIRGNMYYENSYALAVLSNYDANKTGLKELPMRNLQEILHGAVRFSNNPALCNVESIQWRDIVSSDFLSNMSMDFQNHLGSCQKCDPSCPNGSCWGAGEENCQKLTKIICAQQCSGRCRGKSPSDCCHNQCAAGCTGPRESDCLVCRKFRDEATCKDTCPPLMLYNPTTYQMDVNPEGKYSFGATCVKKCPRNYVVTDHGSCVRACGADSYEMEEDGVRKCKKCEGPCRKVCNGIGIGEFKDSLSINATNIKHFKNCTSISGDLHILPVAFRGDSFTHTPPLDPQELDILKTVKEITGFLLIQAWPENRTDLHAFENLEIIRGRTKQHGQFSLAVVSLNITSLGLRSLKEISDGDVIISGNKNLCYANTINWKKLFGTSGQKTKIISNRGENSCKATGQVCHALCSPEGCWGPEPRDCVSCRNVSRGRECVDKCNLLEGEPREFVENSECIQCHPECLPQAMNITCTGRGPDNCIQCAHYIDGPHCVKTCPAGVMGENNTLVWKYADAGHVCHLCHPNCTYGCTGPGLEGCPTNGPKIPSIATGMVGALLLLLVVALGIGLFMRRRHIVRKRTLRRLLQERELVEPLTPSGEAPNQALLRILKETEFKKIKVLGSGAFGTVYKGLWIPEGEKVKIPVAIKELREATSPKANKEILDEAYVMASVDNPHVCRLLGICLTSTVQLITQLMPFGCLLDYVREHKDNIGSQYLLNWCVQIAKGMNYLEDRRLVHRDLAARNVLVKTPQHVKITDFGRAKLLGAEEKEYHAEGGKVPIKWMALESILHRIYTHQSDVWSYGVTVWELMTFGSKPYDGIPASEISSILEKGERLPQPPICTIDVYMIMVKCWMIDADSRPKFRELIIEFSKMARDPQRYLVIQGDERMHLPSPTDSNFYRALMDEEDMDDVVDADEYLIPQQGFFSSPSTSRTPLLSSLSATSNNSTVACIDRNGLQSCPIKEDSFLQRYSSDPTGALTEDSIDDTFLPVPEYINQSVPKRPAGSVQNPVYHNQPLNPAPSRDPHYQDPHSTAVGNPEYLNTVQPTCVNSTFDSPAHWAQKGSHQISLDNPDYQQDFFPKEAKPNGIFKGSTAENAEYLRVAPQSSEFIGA
# maps each entry to its GI50

The following molecules have reported results that may help.
# molecule, GI50
data = [
    ("CN1CCC(c2ccc(-c3ccc4c(c3)C(=O)N(C(C(=O)Nc3nccs3)c3ncn5c3CCC5)CO4)cc2)CC1 (centres unmarked) [Compound 008]", "< 500 nM"),
    ("CN1CCC(c2ccc(-c3ccc4ncn(C(C(=O)Nc5nccs5)c5ncn6c5CCC6)c(=O)c4c3F)cc2)CC1 (centres unmarked) [Compound 006]", "< 500 nM"),
    ("CN1CCN(c2ccc(-c3ccc4ncn(C(C(=O)Nc5nccs5)c5ncn6c5CCC6)c(=O)c4c3)cc2)CC1 (centres unmarked) [Compound 007]", "< 5000 nM"),
    ("CN1CCC(c2ccc(-c3ccc4ncn(C(C(=O)Nc5nccs5)c5ncn6c5CCC6)c(=O)c4c3)cc2)CC1 (centres unmarked) [Compound 005]", "< 500 nM"),
    ("CN1CCC(c2ccc(-c3cc(F)c4c(=O)n(C(C(=O)Nc5nccs5)c5ncn6c5CCC6)ccc4c3)cc2)CC1 (centres unmarked) [Compound 001]", "< 500 nM"),
]

[Q] # returns recorded GI50 (system: EGFR mutant L858R Ba/F3 cells (Homo sapiens, UniProt P00533, L858R, cells depend on it)) for CN1CCC(c2ccc(-c3cc(F)c4c(=O)n(C(C(=O)Nc5nccs5)c5ncn6c5C[C@@H](F)C6)ccc4c3)cc2)CC1 (some centres unmarked) [Compound 002]
[A] < 500 nM

[Q] Can you handle CN1CCC(c2ccc(-c3cc4ccn(C(C(=O)Nc5nccs5)c5ncn6c5CCC6)c(=O)c4s3)cc2)CC1 (centres unmarked) [Compound 003] next?
[A] < 500 nM

[Q] Can you handle CN1CCC(c2ccc(-c3cc4ccn(C(C(=O)Nc5nccs5)c5ncn6c5C[C@@H](F)C6)c(=O)c4s3)cc2)CC1 (some centres unmarked) [Compound 004] next?
[A] < 5000 nM

Data origin, for the record: patent US20260216195A1
